Where these numbers come from: ChEMBL document CHEMBL1148645

System: Cortical neurone
testProtocol: Inhibition of etoposide-induced death of mouse E15.5 cortical neurones
Assay type: functional
conditionsUsed: read-out: ED50 (the source's name)

# moleculeSmiles, unitsText, EC50
records = [
    ("O=[N+]([O-])c1ccc(-c2cn3c4c(sc3n2)CCCC4)cc1", "nM", 30),
]
